# Tested on: Plasmodium falciparum
# measurement description: Primary screen in NF54 nanoGlo assay, in single point, at 2uM, 72h; a lower Z score goes with more inhibition
# Format: functional, Erythrocyte
# applied conditions: timepoint 72 hour
The whole screen tested about 150,000 compounds, of which about 540 (0.36%) showed an effect of 50% or more. Shown is part of a subset that was picked to be rich in strong results.
Heads up, the class ranges for Z score are class 1 (below -10), class 2 (-10 to below -2), class 3 (-2 or more)

Before answering, review these 2 worked examples.
smiles record: Cc1noc(-c2cccc(NC(=O)c3ccccc3-c3ncc(-c4ccccc4)o3)c2)n1
class name: class 3
//
smiles record: CCN(Cc1cnc(-c2ccccc2C)nc1)CC1CCN(C2CCN(C)CC2)CC1
class name: class 3

stdin: For CN1CCC(N2CCC(NCc3cccc4nsnc34)CC2)CC1 , which Z score bin applies?
stdout: class 2

stdin: For CCN(Cc1cccc(OC2CCCC2)c1)CC1CCN(C2CCN(C)CC2)CC1 , which Z score bin applies?
stdout: class 2

stdin: For CN(C)c1ncc(CN2CCN(c3nsc4ccccc34)CC2)cn1 , which Z score bin applies?
stdout: class 3

stdin: For CNc1nc(N[C@H]2CCCN(Cc3ccc(Cl)cc3)C2)nc2c1CCC2 , which Z score bin applies?
stdout: class 2

stdin: For CCn1cc(-c2cccc(C(=O)N[C@@H](C)CN3CCc4ccccc4C3)c2)cn1 , which Z score bin applies?
stdout: class 1

stdin: For O[C@@]1(c2c[nH]nn2)CCN(c2ccnc3cc(Cl)ccc23)C1 , which Z score bin applies?
stdout: class 2

stdin: For Cc1sc2nc(-c3ccccn3)nc(NCCc3nccn3C)c2c1-c1ccccc1 , which Z score bin applies?
stdout: class 1

stdin: For O=C(NCc1cccc(-c2cccnc2)c1)N[C@H]1CCN(C2CCCCC2)C1 , which Z score bin applies?
stdout: class 2

stdin: For Cc1nc(C)c(C)c(N2CC(OCc3ccccc3)C2)n1 , which Z score bin applies?
stdout: class 3

stdin: For Cc1ccc2[nH]cc(-c3cc(N4CCCCC4)ncn3)c2c1 , which Z score bin applies?
stdout: class 2

stdin: For CCN(Cc1cnn(-c2cccc(Cl)c2)c1)CC1CCN(C2CCN(C)CC2)CC1 , which Z score bin applies?
stdout: class 1

stdin: For Cc1cc(NCCCN2CCC(C(=O)O)CC2)nc2ccccc12 , which Z score bin applies?
stdout: class 3

stdin: For Oc1ccc(OC(F)(F)F)cc1-c1ccc2nccn2n1 , which Z score bin applies?
stdout: class 1

stdin: For CN1CCC(Oc2ccc(NCc3ccc(N(C)C)nc3)cn2)CC1 , which Z score bin applies?
stdout: class 3

stdin: For CCOc1ccc2nc(CN(CC)CC3CCN(C4CCN(C)CC4)CC3)ccc2c1 , which Z score bin applies?
stdout: class 1

stdin: For C[C@](O)(CN1CCC(NCc2ccccc2)CC1)C(F)(F)F , which Z score bin applies?
stdout: class 3

stdin: For COc1ccnc(NCCCc2nc(-c3ccncc3)cs2)n1 , which Z score bin applies?
stdout: class 1

stdin: For Cn1cc(-c2cncc(C(=O)NC3CCN(c4cccc(F)c4)CC3)c2)cn1 , which Z score bin applies?
stdout: class 1

stdin: For O=C(NC1CCN(CCOc2ccc(Cl)cc2)CC1)c1c[nH]c2ccncc2c1=O , which Z score bin applies?
stdout: class 1

stdin: For Cc1ccc2[nH]cc(-c3cc(N4CCOCC4)nc(N)n3)c2c1 , which Z score bin applies?
stdout: class 1
